Data provenance is ChEMBL document CHEMBL5291721.

AC50 overview
TGT: 5-hydroxytryptamine receptor 1A (Homo sapiens, UniProt P08908)
Sequence (P08908 whole entry): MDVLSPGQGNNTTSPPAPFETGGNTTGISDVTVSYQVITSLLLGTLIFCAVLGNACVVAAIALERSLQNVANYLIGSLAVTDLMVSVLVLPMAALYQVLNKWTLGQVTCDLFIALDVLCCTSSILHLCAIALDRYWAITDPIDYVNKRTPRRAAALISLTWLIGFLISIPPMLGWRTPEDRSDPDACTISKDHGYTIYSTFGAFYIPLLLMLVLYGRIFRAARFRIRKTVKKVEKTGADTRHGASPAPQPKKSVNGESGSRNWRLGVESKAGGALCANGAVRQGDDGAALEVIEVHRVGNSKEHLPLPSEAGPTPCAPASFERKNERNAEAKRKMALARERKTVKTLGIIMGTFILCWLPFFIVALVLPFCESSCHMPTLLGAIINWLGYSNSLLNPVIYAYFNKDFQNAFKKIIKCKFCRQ

Query CC[C@H]1[C@@H](O)[C@@H]2[C@H](CC[C@]3(C)[C@@H]([C@H](C)CCC(=O)O)CC[C@@H]23)[C@@]2(C)CC[C@@H](O)C[C@@H]12 yields AC50 of > 30000 nM

For record CC[C@H]1CN2CC[C@H]1C[C@H]2[C@H](O)c1ccnc2ccc(OC)cc12 [HYDROQUININE] the listed AC50 is > 30000 nM

get_value(item= NC1=NCC2c3ccccc3Cc3ccccc3N12 (stereo not drawn) [EPINASTINE] , readout=AC50) returns 1280 nM
